Target: Phosphatidylinositol 4,5-bisphosphate 3-kinase catalytic subunit delta isoform (Homo sapiens, UniProt O00329)
Sequence (O00329 whole entry, canonical isoform): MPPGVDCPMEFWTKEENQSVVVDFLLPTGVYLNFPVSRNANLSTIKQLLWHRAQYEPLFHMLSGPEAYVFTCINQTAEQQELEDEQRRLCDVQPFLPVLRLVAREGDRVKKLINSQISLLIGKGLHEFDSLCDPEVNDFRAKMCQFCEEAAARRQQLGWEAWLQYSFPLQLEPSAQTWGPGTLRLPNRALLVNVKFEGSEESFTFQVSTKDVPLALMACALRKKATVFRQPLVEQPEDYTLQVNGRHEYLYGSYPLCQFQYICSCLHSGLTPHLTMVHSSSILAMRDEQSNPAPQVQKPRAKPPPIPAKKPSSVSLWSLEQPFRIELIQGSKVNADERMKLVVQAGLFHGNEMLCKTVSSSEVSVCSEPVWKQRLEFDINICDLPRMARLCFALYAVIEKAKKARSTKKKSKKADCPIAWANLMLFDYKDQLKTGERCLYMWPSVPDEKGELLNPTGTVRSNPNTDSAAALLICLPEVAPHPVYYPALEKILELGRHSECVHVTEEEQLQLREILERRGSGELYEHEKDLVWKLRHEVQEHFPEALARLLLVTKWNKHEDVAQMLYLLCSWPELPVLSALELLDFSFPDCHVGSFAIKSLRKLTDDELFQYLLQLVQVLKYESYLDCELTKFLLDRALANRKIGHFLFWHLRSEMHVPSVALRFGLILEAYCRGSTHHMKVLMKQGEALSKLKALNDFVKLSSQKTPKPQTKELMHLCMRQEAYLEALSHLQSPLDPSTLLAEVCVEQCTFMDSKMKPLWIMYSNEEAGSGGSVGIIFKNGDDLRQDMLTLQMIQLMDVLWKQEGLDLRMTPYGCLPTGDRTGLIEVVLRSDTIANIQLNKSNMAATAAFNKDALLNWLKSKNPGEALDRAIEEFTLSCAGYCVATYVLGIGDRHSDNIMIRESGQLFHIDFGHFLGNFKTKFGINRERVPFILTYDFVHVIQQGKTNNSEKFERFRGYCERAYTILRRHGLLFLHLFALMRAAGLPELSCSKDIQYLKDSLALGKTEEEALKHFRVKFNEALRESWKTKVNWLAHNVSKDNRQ
Test: Inhibition of PI3Kdelta (unknown origin) using PIP2 as substrate incubated for 1 hrs in presence of ATP by ADP-Glo kinase assay
pIC50: −log10 of the molar value.
testReadout: pIC50

1. COc1nc(-c2ccc(NC(=O)Nc3ccc(C(=O)NCCCCCC(=O)Nc4ccccc4N)cc3)cc2)nc(N2CCOCC2)n1 6.69

----------
Target: CYP3A4 (Homo sapiens, UniProt P08684)
Sequence (P08684 whole entry): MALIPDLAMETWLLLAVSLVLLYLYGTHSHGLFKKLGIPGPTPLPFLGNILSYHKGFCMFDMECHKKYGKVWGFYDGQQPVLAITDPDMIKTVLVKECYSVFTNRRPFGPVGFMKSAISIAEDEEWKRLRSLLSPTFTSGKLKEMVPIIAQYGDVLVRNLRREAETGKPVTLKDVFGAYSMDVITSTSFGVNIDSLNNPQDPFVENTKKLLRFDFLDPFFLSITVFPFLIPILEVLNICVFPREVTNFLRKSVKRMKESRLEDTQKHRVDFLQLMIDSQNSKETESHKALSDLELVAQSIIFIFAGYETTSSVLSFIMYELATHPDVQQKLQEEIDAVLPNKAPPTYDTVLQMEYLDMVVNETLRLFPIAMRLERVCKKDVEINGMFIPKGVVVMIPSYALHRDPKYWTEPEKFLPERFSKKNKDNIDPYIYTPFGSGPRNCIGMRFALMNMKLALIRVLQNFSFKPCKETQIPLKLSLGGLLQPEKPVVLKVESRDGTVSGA
Experiment: Inhibition of CYP3A4 in human liver microsomes using bufuralol as substrate at 10 uM in presence of NADPH regenerating system by LC-MS/MS analysis relative to control
Format: ADME, Microsome
Details: probe bufuralol
testReadout: inhibition at 10 µM

1) COc1nc(-c2ccc(NC(=O)Nc3ccc(C(=O)NCCCCCC(=O)Nc4ccccc4N)cc3)cc2)nc(N2CCOCC2)n1 32.5%
